Data origin, for the record: ChEMBL document CHEMBL5058577

test system: Fibroblast; experiment: Multiplex assay against human fibroblast; type: toxicity, cell-based; details: 12 h, 10 µM, compound concentration 10 uM, replicate 2
Measured Quantity: Population Mitochondria Different-Phenotype (%)

- Molecular String: "CCCCC(=O)N(Cc1ccc(-c2ccccc2-c2nnn[nH]2)cc1)[C@H](C(=O)O)C(C)C"
  System Under Test: "Fibroblast"
  Unit Text: "%"
  Experimental Value: 11
- Molecular String: "CC[C@@H](C)Nc1nc(C)nc2c(-c3ccc(OC)nc3C)c(C)nn12"
  System Under Test: "Fibroblast"
  Unit Text: "%"
  Experimental Value: 9
- Molecular String: "CN[C@@H](C)C(=O)N[C@H](C(=O)N1CCC[C@H]1C(=O)Nc1snnc1-c1ccccc1)C1CCCCC1"
  System Under Test: "Fibroblast"
  Unit Text: "%"
  Experimental Value: 10
- Molecular String: "Cc1noc(-c2ccc(-c3ccc(CC(=O)O)cc3)cc2)c1NC(=O)O[C@H](C)c1ccccc1Cl"
  System Under Test: "Fibroblast"
  Unit Text: "%"
  Experimental Value: 10
- Molecular String: "Cc1cccc(NC(=O)CN2CCC(c3ccccn3)CC2)c1.Cl.Cl"
  System Under Test: "Fibroblast"
  Unit Text: "%"
  Experimental Value: 10
- Molecular String: "CC(C)(C)c1cc(NC(=O)Nc2ccc(-c3cn4c(n3)sc3cc(OCCN5CCOCC5)ccc34)cc2)no1"
  System Under Test: "Fibroblast"
  Unit Text: "%"
  Experimental Value: 5
- Molecular String: "COc1ccccc1N1CCN(C[C@@H](C(=O)NC(C)(C)C)c2ccccc2)CC1.Cl.Cl"
  System Under Test: "Fibroblast"
  Unit Text: "%"
  Experimental Value: 12
- Molecular String: "O=C(CCCc1ccccc1)Nc1nc2ccccc2c(=O)s1"
  System Under Test: "Fibroblast"
  Unit Text: "%"
  Experimental Value: 17
- Molecular String: "NCCc1cn(S(=O)(=O)c2c(Cl)nc3sccn23)c2ccccc12.O=C(O)C(=O)O"
  System Under Test: "Fibroblast"
  Unit Text: "%"
  Experimental Value: 34

###

test system: Fibroblast; assay: Multiplex assay against human fibroblast; assay type: toxicity, cell-based; conditions: 48 h, 1 µM, compound concentration 1 uM, replicate 2
Measured Quantity: Population Tubulin-Different-Phenotype (%)

- Compound: "CN1CCN(c2cc(-c3ccccc3)nc(N)n2)CC1"
  Experimental Value: "54%"
- Compound: "CCCOc1ccc2[nH]cc(C3=CCNCC3)c2n1.Cl"
  Experimental Value: "40%"
- Compound: "Cc1cccc(NC(=O)CN2CCC(c3ccccn3)CC2)c1.Cl.Cl"
  Experimental Value: "35%"
- Compound: "Cc1cnc(-c2cc(N3CCN(C(=O)CCS(C)(=O)=O)CC3)ncc2Cl)c(C)c1"
  Experimental Value: "70%"
- Compound: "COc1cccc2c1c(NS(=O)(=O)c1ccc(Cl)s1)nn2Cc1cccc(CNC(=O)C(C)(C)O)c1"
  Experimental Value: "55%"
- Compound: "N#Cc1cc(F)cc(-c2nc(-c3ccc(F)cn3)no2)c1"
  Experimental Value: "57%"
- Compound: "Cc1sc2c(c1C)C(c1ccc(Cl)cc1)=N[C@@H](CC(=O)NCCCCCCCCNC(=O)COc1cccc3c1C(=O)N(C1CCC(=O)NC1=O)C3=O)c1nnc(C)n1-2 (stereo partly specified)"
  Experimental Value: "82%"
- Compound: "Cc1onc(-c2ccccc2Cl)c1C(=O)N(C)c1ccc(Cl)cc1"
  Experimental Value: "51%"
- Compound: "Cc1noc(-c2ccc(-c3ccc(CC(=O)O)cc3)cc2)c1NC(=O)O[C@H](C)c1ccccc1Cl"
  Experimental Value: "25%"
- Compound: "Cc1c(CC(=O)O)c2cccnc2n1Cc1ccc(S(C)(=O)=O)cc1C(F)(F)F [FEVIPIPRANT]"
  Experimental Value: "47%"
- Compound: "CCCCCC(O)/C=C/[C@H]1C(=O)CC(O)C1C/C=C\\CCCC(=O)O (stereo partly specified)"
  Experimental Value: "42%"
- Compound: "CC[C@@H](C)Nc1nc(C)nc2c(-c3ccc(OC)nc3C)c(C)nn12 [PEXACERFONT]"
  Experimental Value: "52%"
- Compound: "Cl.NCCc1ccc(O)c(O)c1 [DOPAMINE HYDROCHLORIDE]"
  Experimental Value: "43%"
- Compound: "O=C1[C@H](Cc2ccc(O)cc2)N2C(=O)CCN(C(=O)NCc3ccccc3)[C@H]2CN1Cc1cccc2ccccc12"
  Experimental Value: "48%"
- Compound: "CCc1cc2cc(NS(=O)(=O)c3ccc(C#N)cc3)ccc2n(CC)c1=O"
  Experimental Value: "60%"
- Compound: "CC(C)c1noc(N2CCC(COc3ccc(-c4ccc(S(C)(=O)=O)cc4)nc3)CC2)n1 [GSK-1292263]"
  Experimental Value: "55%"

###

system: Fibroblast; assay: Multiplex assay against human fibroblast; type: toxicity, cell-based; conditions: 48 h, 10 µM, compound concentration 10 uM, replicate 2
Think of 70% as a floor: if Population Tubulin-Different-Phenotype (%) stands on it or above, it is 1 (yes); beneath it, 0 (no).

- Molecule: "CC[C@@H](C)Nc1nc(C)nc2c(-c3ccc(OC)nc3C)c(C)nn12 [PEXACERFONT]"
  Assigned Label: "1 (yes)"
- Molecule: "Br.CS(=O)(=O)Nc1c(O)ccc2c1CCCC2C1=NCCN1 (centres undefined)"
  Assigned Label: "0 (no)"
- Molecule: "CN[C@@H](C)C(=O)N[C@H](C(=O)N1CCC[C@H]1C(=O)Nc1snnc1-c1ccccc1)C1CCCCC1 [GDC-0152]"
  Assigned Label: "1 (yes)"
- Molecule: "NCCc1cn(S(=O)(=O)c2c(Cl)nc3sccn23)c2ccccc12.O=C(O)C(=O)O"
  Assigned Label: "1 (yes)"
- Molecule: "CN(C)C(=O)Cn1cc(-c2ccc(-c3cncc4ccccc34)cc2)cn1"
  Assigned Label: "1 (yes)"
- Molecule: "CCCCCC(O)/C=C/[C@H]1C(=O)CC(O)C1C/C=C\\CCCC(=O)O (some centres undefined)"
  Assigned Label: "0 (no)"
- Molecule: "Cc1cccc(NC(=O)CN2CCC(c3ccccn3)CC2)c1.Cl.Cl"
  Assigned Label: "0 (no)"
- Molecule: "CC(C)c1noc(N2CCC(COc3ccc(-c4ccc(S(C)(=O)=O)cc4)nc3)CC2)n1 [GSK-1292263]"
  Assigned Label: "1 (yes)"

###

tested on: U2OS; assay: Multiplex assay against U2OS; assay type: toxicity, cell-based; conditions: human, 48 h, 1 µM, compound concentration 1 uM, replicate 1
Attribute: Total Cell Count
Measured Quantity: Total Cell Count

- Molecule: "O=C(CCCc1ccccc1)Nc1nc2ccccc2c(=O)s1"
  System Under Test: "U2OS"
  Experimental Value: 394
- Molecule: "CC(C)(C)c1cc(NC(=O)Nc2ccc(-c3cn4c(n3)sc3cc(OCCN5CCOCC5)ccc34)cc2)no1"
  System Under Test: "U2OS"
  Experimental Value: 297
- Molecule: "CCCCCC(O)/C=C/[C@H]1C(=O)CC(O)C1C/C=C\\CCCC(=O)O (stereo not given in full)"
  System Under Test: "U2OS"
  Experimental Value: 334
- Molecule: "Cc1cccc(NC(=O)CN2CCC(c3ccccn3)CC2)c1.Cl.Cl"
  System Under Test: "U2OS"
  Experimental Value: 341
- Molecule: "CN(C)C(=O)Cn1cc(-c2ccc(-c3cncc4ccccc34)cc2)cn1"
  System Under Test: "U2OS"
  Experimental Value: 333
- Molecule: "Cl.N=C(N)NC(=O)Cc1c(Cl)cccc1Cl [GUANFACINE HYDROCHLORIDE]"
  System Under Test: "U2OS"
  Experimental Value: 262
- Molecule: "O=C(NCCN1CCC(n2c(=O)[nH]c3cc(Cl)ccc32)CC1)c1ccc(F)cc1 [HALOPEMIDE]"
  System Under Test: "U2OS"
  Experimental Value: 337
- Molecule: "N#Cc1c(Oc2cccc(OS(=O)(=O)CCCC(F)(F)F)c2)cccc1C(F)(F)F"
  System Under Test: "U2OS"
  Experimental Value: 361
- Molecule: "CC(=O)Nc1cccc2c1c(Sc1ccc(Cl)cc1)c(C)n2CC(=O)O"
  System Under Test: "U2OS"
  Experimental Value: 375
- Molecule: "CCc1cc2cc(NS(=O)(=O)c3ccc(C#N)cc3)ccc2n(CC)c1=O"
  System Under Test: "U2OS"
  Experimental Value: 450
- Molecule: "COc1ccccc1N1CCN(C[C@@H](C(=O)NC(C)(C)C)c2ccccc2)CC1.Cl.Cl"
  System Under Test: "U2OS"
  Experimental Value: 452
- Molecule: "C[C@H](N)COC(=O)[C@@H](CCCCN)NC(=O)Cc1c(-c2ccc3ccccc3c2)[nH]c2c1ccc1ccccc12"
  System Under Test: "U2OS"
  Experimental Value: 440
- Molecule: "NCCc1cn(S(=O)(=O)c2c(Cl)nc3sccn23)c2ccccc12.O=C(O)C(=O)O"
  System Under Test: "U2OS"
  Experimental Value: 454
- Molecule: "Cc1noc(-c2ccc(-c3ccc(CC(=O)O)cc3)cc2)c1NC(=O)O[C@H](C)c1ccccc1Cl"
  System Under Test: "U2OS"
  Experimental Value: 408
- Molecule: "CCCCC1=NC2(CCCC2)C(=O)N1Cc1ccc(-c2ccccc2-c2nnn[nH]2)cc1"
  System Under Test: "U2OS"
  Experimental Value: 357
- Molecule: "Cc1sc2c(c1C)C(c1ccc(Cl)cc1)=N[C@@H](CC(=O)NCCCCCCCCNC(=O)COc1cccc3c1C(=O)N(C1CCC(=O)NC1=O)C3=O)c1nnc(C)n1-2 (stereo not given in full)"
  System Under Test: "U2OS"
  Experimental Value: 353
- Molecule: "Br.CS(=O)(=O)Nc1c(O)ccc2c1CCCC2C1=NCCN1 (stereo not given)"
  System Under Test: "U2OS"
  Experimental Value: 484
- Molecule: "CC[C@@H](C)Nc1nc(C)nc2c(-c3ccc(OC)nc3C)c(C)nn12"
  System Under Test: "U2OS"
  Experimental Value: 476
- Molecule: "CC(C)COc1ccc(CNC(=O)N(Cc2ccc(F)cc2)C2CCN(C)CC2)cc1"
  System Under Test: "U2OS"
  Experimental Value: 393
- Molecule: "N#Cc1cc(F)cc(-c2nc(-c3ccc(F)cn3)no2)c1"
  System Under Test: "U2OS"
  Experimental Value: 290
